Values compiled from paper PMC10002828.

# target.or.test.system: human two-color SERCA2a (2CS) biosensor (Homo sapiens, UniProt P16615)
# Construct: expressed in transfected cells
# Sequence (P16615 1-997 isoform P16615-2): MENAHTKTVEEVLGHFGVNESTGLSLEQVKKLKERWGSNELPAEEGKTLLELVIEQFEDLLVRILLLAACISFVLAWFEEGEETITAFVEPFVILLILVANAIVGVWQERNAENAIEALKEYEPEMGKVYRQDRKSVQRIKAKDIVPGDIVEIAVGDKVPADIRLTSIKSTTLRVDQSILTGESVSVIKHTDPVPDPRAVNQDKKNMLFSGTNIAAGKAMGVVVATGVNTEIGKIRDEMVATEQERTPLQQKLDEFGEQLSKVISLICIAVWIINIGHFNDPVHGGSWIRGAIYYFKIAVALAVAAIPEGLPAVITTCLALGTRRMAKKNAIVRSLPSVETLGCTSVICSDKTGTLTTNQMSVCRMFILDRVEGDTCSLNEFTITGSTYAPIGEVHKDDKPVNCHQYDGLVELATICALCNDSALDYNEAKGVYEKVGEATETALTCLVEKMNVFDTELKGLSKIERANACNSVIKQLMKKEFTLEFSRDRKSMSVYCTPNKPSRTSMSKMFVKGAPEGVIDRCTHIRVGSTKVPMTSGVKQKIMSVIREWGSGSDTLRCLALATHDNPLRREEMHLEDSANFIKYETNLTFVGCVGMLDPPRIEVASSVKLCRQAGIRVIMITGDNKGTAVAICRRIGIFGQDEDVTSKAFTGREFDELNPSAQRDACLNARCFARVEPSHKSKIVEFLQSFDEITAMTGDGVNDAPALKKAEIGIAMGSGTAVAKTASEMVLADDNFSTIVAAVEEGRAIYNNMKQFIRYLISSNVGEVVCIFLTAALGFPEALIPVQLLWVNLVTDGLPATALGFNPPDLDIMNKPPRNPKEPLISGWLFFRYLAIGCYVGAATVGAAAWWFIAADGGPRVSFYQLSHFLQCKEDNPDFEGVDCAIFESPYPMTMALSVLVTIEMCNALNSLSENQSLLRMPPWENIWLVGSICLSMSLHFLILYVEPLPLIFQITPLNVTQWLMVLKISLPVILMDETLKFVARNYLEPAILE
# test.name: FLT/FRET concentration-response of two-color SERCA2a (2CS) biosensor in live HEK293 cells
# Format: cell-based
# condition.description: 2CS biosensor, normalized FRET E; read-out: FRET half maximal effect (EC50), Figure 6 legend
readout.kind: EC50

INSERT INTO measurements (compound_string, endpoint_result) VALUES
  ('O=C(c1ccc(-c2ccc(O)cc2)nc1)N1CCC(CCc2ccccc2)CC1', '7.1 µM');
